pIC50: −log10 of the molar value.
Compiled notes: published pIC50 values involving UniProtKB P36888.

In the examples that follow, each entry is paired with its recorded pIC50.
[
  {
    "COMPOUND": "COC[C@H](C)Nc1ncc2c(OC3CCOCC3)ncc(-c3ccc(CC#N)cc3)c2n1",
    "pIC50": "5.00 to 6.00"
  },
  {
    "COMPOUND": "CN1CCN(c2ccc(-c3cc(-c4ccc(NC(=O)Nc5ccc(Oc6ccccc6)cc5)cc4)n[nH]3)cc2)CC1",
    "pIC50": "> 7.30"
  },
  {
    "COMPOUND": "Cc1[nH]c(/C=C2\\C(=O)Nc3cc(NC(=O)c4c[nH]cc(-c5cc(F)cc(F)c5)c4=O)ccc32)c(C)c1CCC(=O)O",
    "pIC50": 7.30
  },
  {
    "COMPOUND": "NCCNc1nc2ccccc2c2c(=O)c3cccc(F)c3sc12",
    "pIC50": "> 7.29"
  },
  {
    "COMPOUND": "COc1ccc(C(=O)NC(=O)Nc2ccc3c(c2)NC(=O)/C3=C\\c2cccs2)cc1",
    "pIC50": "< 6.00"
  }
]

Lab book: pIC50 of CN1CCN(c2ccc3nc(-c4c(N[C@H]5CCNC[C@H]5F)c5ccsc5[nH]c4=O)[nH]c3c2)CC1 (relative stereo) noted as ≥ 7.30

Field pIC50 (entry COCC(C)Nc1ncc2c(-c3cccc(-c4nnc(C)o4)c3)cc(C3CCC(O)CC3)n2n1 (stereo not shown) ) reads 5.00 to 6.00

# pIC50 (compound: `CN1CCN(c2ccc3[nH]c(-c4cc(-c5ccc(NC(=O)Nc6ccc(OC(F)(F)F)cc6)cc5)[nH]n4)nc3c2)CC1` ) is > 7.30

Reported pIC50 ( `Cc1cnc2[nH]cc(Cc3ccc(Nc4ccc(C)nc4)nc3F)c2c1` ) = > 6.00

# compound COC[C@H](C)Nc1ncc2c(-c3cnn(CC4CNC(=O)C4)c3)cc([C@H]3CC[C@H](O)CC3)n2n1 (stereo partly shown) ; its pIC50 = 6.00 to 7.00
